tgt: T1, HBsu (histone-like protein HU of B. subtilis), recombinant (Bacillus subtilis, UniProt P08821 1-92)
T1 sequence: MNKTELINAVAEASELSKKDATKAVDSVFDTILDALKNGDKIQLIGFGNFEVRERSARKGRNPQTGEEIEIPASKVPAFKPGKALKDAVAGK
assay_details: SPR
parameter: pKd
pKd is defined as minus the log10 of a concentration measured in mol/L.

The reported pKd of the binder Gp46 from bacteriophage SPO1 (natural protein) MMTEDQKFKYLTKIEELEAGCFSDWTKEDITGDLKYLKKGIIEESIELIRAVNGLTYSEELHDFTQEIIEELDISPL was 5.23

The reported numbers originate from paper PMC8892312.
